experiment: Solubility of peptides and HBS helices
Type: physicochemical
attribute-measured: Solubility

{"compound": "CC(C)C[C@H](NC(=O)CN1CC=CCCC(=O)N[C@@H](Cc2ccccc2)C(=O)N[C@@H](CCC(=O)O)C1=O)C(=O)N[C@@H](CC(C)C)C(=O)N[C@@H](CCCNC(=N)N)C(=O)N[C@@H](CC(C)C)C(=O)N[C@@H](Cc1c[nH]c2ccccc12)C(=O)N[C@@H](CC(C)C)C(=O)N[C@@H](CCCNC(=N)N)C(=O)N[C@@H](CCCCN)C(=O)N[C@@H](C)C(=O)N[C@@H](CCC(=O)O)C(=O)N[C@@H](CCC(=O)O)C(=O)N[C@@H](C)C(=O)N[C@@H](CC(N)=O)C(N)=O [HBS 12]", "attribute-measured": "Solubility", "observed-measurement": "soluble"}
{"compound": "CC[C@H](C)[C@H](NC(=O)[C@H](C)N1CC=CCCC(=O)N[C@@H](Cc2ccccc2)C(=O)N[C@@H](CCC(=O)O)C1=O)C(=O)N[C@@H](Cc1ccc(O)cc1)C(=O)N[C@@H](CCCNC(=N)N)C(=O)N[C@@H](CC(C)C)C(=O)N[C@@H](CCC(=O)O)C(=O)N[C@H]1CCCCNC(=O)CC[C@@H](C(=O)N[C@@H](CCC(=O)O)C(=O)N[C@@H](C)C(=O)N[C@@H](CC(N)=O)C(N)=O)NC(=O)[C@H](C)NC(=O)[C@H](CCCCN)NC(=O)[C@H](CC(C)C)NC1=O [HBS 15]", "attribute-measured": "Solubility", "observed-measurement": "soluble"}
